Molecular target: T1, GLP-1R Q210A (Homo sapiens)
T1 chain: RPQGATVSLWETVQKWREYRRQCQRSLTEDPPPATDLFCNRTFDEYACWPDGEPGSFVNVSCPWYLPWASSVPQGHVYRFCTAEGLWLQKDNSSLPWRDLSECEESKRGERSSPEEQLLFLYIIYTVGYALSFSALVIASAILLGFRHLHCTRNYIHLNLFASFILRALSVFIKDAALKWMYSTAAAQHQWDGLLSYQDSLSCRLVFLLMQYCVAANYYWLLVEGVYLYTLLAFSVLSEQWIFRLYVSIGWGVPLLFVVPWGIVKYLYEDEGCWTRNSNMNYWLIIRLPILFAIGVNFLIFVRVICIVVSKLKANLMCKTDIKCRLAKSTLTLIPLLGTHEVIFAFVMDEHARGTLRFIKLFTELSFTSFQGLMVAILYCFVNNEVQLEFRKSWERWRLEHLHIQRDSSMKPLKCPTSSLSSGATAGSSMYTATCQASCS
readout-kind: IC50 (nM)

HSQGTFTSDYSKYLDSRRAQDFVQWLMNTKRNRNNIA [oxyntomodulin] = 66.1
